The reported measurements were obtained from ChEMBL document CHEMBL4665627.

I'd appreciate it if you could supply log10 MIC values for the items below.
# Test system: Candida tropicalis
# PROTOCOL DETAILS: Antifungal activity against Candida tropicalis assessed as inhibition of fungal growth after 24 hrs by CLSI protocol based two fold serial dilution method
# Assay type: functional
Reminder: these figures are log10 of reported MIC, in µM before transformation.

Item under review: CCn1cc(-c2csc(N)n2)c(=O)c2cc(F)c(N3CCN(CC(C)O)CC3)cc21 (centres undefined) . Reported log10 MIC?
2.47

Item under review: `CCn1cc(-c2csc(N)n2)c(=O)c2cc(N3CCN(CC(C)=O)CC3)c(Cl)cc21` . Reported log10 MIC?
2.46

Item under review: `CCn1cc(-c2csc(N)n2)c(=O)c2cc(F)c(N3CCNCC3)cc21` . Reported log10 MIC?
2.84

Item under review: `CCn1cc(-c2csc(N)n2)c(=O)c2cc(F)c(N3CCN(Cc4ccc(F)cc4)CC3)cc21` . Reported log10 MIC?
2.12

Item under review: `CCn1cc(-c2csc(N)n2)c(=O)c2cc(F)c(N3CCN(C=O)CC3)cc21` . Reported log10 MIC?
2.80

Item under review: `CCn1cc(-c2csc(N)n2)c(=O)c2cc(F)c(N3CCN(CC(C)=O)CC3)cc21` . Reported log10 MIC?
2.47

For every listed record, write down its log10 MIC.
1. CCn1cc(-c2csc(N)n2)c(=O)c2cc(F)c(N3CCN(Cc4ccc(Cl)cc4Cl)CC3)cc21
2. CCn1cc(-c2csc(N)n2)c(=O)c2cc(F)c(N3CCN(C)CC3)cc21
3. CCn1cc(-c2csc(N)n2)c(=O)c2cc(F)c(N3CCN(Cc4ccc(Cl)c(Cl)c4)CC3)cc21

1. 2.68
2. 2.82
3. 2.68

For every listed record, write down its log10 MIC.
1. C=CCN1CCN(c2cc3c(cc2F)c(=O)c(-c2csc(N)n2)cn3CC)CC1
2. CCn1cc(-c2csc(N)n2)c(=O)c2cc(F)c(N3CCN(CC(=O)N(CCO)CCO)CC3)cc21
3. CCCCCCCCN1CCN(c2cc3c(cc2F)c(=O)c(-c2csc(N)n2)cn3CC)CC1
4. CCn1cc(-c2csc(N)n2)c(=O)c2cc(F)c(N3CCN(CCO)CC3)cc21
5. CCn1cc(-c2csc(N)n2)c(=O)c2cc(N3CCN(c4cc5c(cc4F)c(=O)c(-c4csc(N)n4)cn5CC)CC3)c(Cl)cc21

[2.19, 1.79, 2.42, 2.18, 2.88]

* * *

# Test system: Candida parapsilosis
# PROTOCOL DETAILS: Antifungal activity against Candida parapsilosis ATCC 22019 assessed as inhibition of fungal growth after 24 hrs by CLSI protocol based two fold serial dilution method
# Format: functional
# PARTICULARS: Lodderomyces parapsilosis
MEASURED QUANTITY: MIC (µM)
Numbers only, in µM.

Example entries begin here.
Item under review: `C#CCN1CCN(c2cc3c(cc2F)c(=O)c(-c2csc(N)n2)cn3CC)CC1` . Reported MIC?
10

Item under review: `CCn1cc(-c2csc(N)n2)c(=O)c2cc(F)c(N3CCNCC3)cc21` . Reported MIC?
343

Item under review: `CCn1cc(-c2csc(N)n2)c(=O)c2cc(N3CCN(CC(C)=O)CC3)c(Cl)cc21` . Reported MIC?
288

Item under review: `CCn1cc(-c2csc(N)n2)c(=O)c2cc(F)c(N3CCN(CC(=O)N(CCO)CCO)CC3)cc21` . Reported MIC?
31

Item under review: `CCCCCCCCN1CCN(c2cc3c(cc2F)c(=O)c(-c2csc(N)n2)cn3CC)CC1` . Reported MIC?
264

Item under review: `CCn1cc(-c2csc(N)n2)c(=O)c2cc(F)c(N3CCN(Cc4ccc(F)cc4)CC3)cc21` . Reported MIC?
67

Item under review: `CCn1cc(-c2csc(N)n2)c(=O)c2cc(F)c(N3CCN(Cc4ccc(Cl)cc4Cl)CC3)cc21` . Reported MIC?
15

Item under review: `CCn1cc(-c2csc(N)n2)c(=O)c2cc(F)c(N3CCN(C)CC3)cc21` . Reported MIC?
331

For every listed record, write down its MIC.
1. CCCN1CCN(c2cc3c(cc2F)c(=O)c(-c2csc(N)n2)cn3CC)CC1
2. CCn1cc(-c2csc(N)n2)c(=O)c2cc(F)c(N3CCN(CC(=O)N(C)C)CC3)cc21

[308, 279]

For every listed record, write down its MIC.
1. CCCCCCCCCCN1CCN(c2cc3c(cc2F)c(=O)c(-c2csc(N)n2)cn3CC)CC1
2. CCn1cc(-c2csc(N)n2)c(=O)c2cc(F)c(N3CCN(CC(C)O)CC3)cc21 (stereo not drawn)
3. CCn1cc(-c2csc(N)n2)c(=O)c2cc(F)c(N3CCN(CCO)CC3)cc21

[249, 148, 77]

* * *

# Tested on: Candida parapsilosis
# PROTOCOL DETAILS: Antifungal activity against Candida parapsilosis ATCC 22019 assessed as inhibition of fungal growth after 24 hrs by CLSI protocol based two fold serial dilution method
# Type: functional
# PARTICULARS: Lodderomyces parapsilosis
I'd appreciate it if you could supply MIC values for the items below.
Numbers only, in µM.

Example entries begin here.
Item under review: `CCOC(=O)CN1CCN(c2cc3c(=O)c(-c4csc(N)n4)cn(CC)c3cc2Cl)CC1` . Reported MIC?
135

Item under review: `CCn1cc(-c2csc(N)n2)c(=O)c2cc(N3CCNCC3)c(Cl)cc21` . Reported MIC?
1320

Item under review: `OC(Cn1cncn1)(Cn1cncn1)c1ccc(F)cc1F` . Reported MIC?
13

Item under review: `CCn1cc(-c2csc(N)n2)c(=O)c2cc(F)c(N3CCN(Cc4ccc(Cl)cc4)CC3)cc21` . Reported MIC?
16

Item under review: `CCN1CCN(c2cc3c(cc2F)c(=O)c(-c2csc(N)n2)cn3CC)CC1` . Reported MIC?
80

Item under review: `CCn1cc(-c2csc(N)n2)c(=O)c2cc(N3CCN(c4cc5c(cc4F)c(=O)c(-c4csc(N)n4)cn5CC)CC3)c(Cl)cc21` . Reported MIC?
757

For every listed record, write down its MIC.
1. CCn1cc(-c2csc(N)n2)c(=O)c2cc(F)c(N3CCN(CC(C)=O)CC3)cc21
2. CCn1cc(-c2csc(N)n2)c(=O)c2cc(F)c(N3CCN(CC(=O)N(C(C)C)C(C)C)CC3)cc21
3. CCn1cc(-c2csc(N)n2)c(=O)c2cc(F)c(N3CCN(CC#N)CC3)cc21

1. 298
2. 996
3. 19

* * *

# Test system: Escherichia coli
# PROTOCOL DETAILS: Antibacterial activity against Escherichia coli ATCC 25922 assessed as inhibition of bacterial growth after 24 hrs by CLSI protocol based two fold serial dilution method
# Assay type: functional
So basically every entry gets a class from its MIC, ranges being class 1: < 70 µM; class 2: ≥ 70 µM and < 300 µM; class 3: ≥ 300 µM

Hi, small favor: classify `CCn1cc(-c2csc(N)n2)c(=O)c2cc(F)c(N3CCN(CC#N)CC3)cc21` by its MIC when you get a moment.
class 1

Hi, small favor: classify `CCn1cc(-c2csc(N)n2)c(=O)c2cc(F)c(N3CCN(CC(=O)N(C(C)C)C(C)C)CC3)cc21` by its MIC when you get a moment.
class 3

Hi, small favor: classify `CCn1cc(-c2csc(N)n2)c(=O)c2cc(F)c(N3CCN(Cc4ccc(F)cc4)CC3)cc21` by its MIC when you get a moment.
class 1

Hi, small favor: classify CCn1cc(C(=O)O)c(=O)c2cc(F)c(N3CCNCC3)cc21 [NORFLOXACIN] by its MIC when you get a moment.
class 1

* * *

# Tested on: Enterococcus faecalis
# PROTOCOL DETAILS: Antibacterial activity against Enterococcus faecalis assessed as inhibition of bacterial growth after 24 hrs by CLSI protocol based two fold serial dilution method
# Type: functional
MEASURED QUANTITY: MIC

Give Enterococcus faecalis MIC for `CCn1cc(-c2csc(N)n2)c(=O)c2cc(F)c(N3CCN(CC(=O)N(C)C)CC3)cc21`
140 µM

For every listed record, write down its MIC.
1. CCn1cc(-c2csc(N)n2)c(=O)c2cc(F)c(N3CCN(CCO)CC3)cc21
2. CCn1cc(-c2csc(N)n2)c(=O)c2cc(N3CCN(CC(C)=O)CC3)c(Cl)cc21
3. CCN(CC)C(=O)CN1CCN(c2cc3c(cc2F)c(=O)c(-c2csc(N)n2)cn3CC)CC1
4. CCn1cc(-c2csc(N)n2)c(=O)c2cc(F)c(N3CCN(CC(C)O)CC3)cc21 (stereo not given)

["38 µM", "288 µM", "132 µM", "297 µM"]

* * *

# Test system: Acinetobacter baumannii
# PROTOCOL DETAILS: Antibacterial activity against Acinetobacter baumannii assessed as inhibition of bacterial growth after 24 hrs by CLSI protocol based two fold serial dilution method
# Format: functional
I'd appreciate it if you could supply MIC values for the items below.
Numbers only, in µM.

Example entries begin here.
Item under review: `CCn1cc(-c2csc(N)n2)c(=O)c2cc(N3CCNCC3)c(Cl)cc21` . Reported MIC?
1320

Item under review: `CCn1cc(-c2csc(N)n2)c(=O)c2cc(N3CCN(c4cc5c(cc4F)c(=O)c(-c4csc(N)n4)cn5CC)CC3)c(Cl)cc21` . Reported MIC?
757

Item under review: `CCCCCCCCN1CCN(c2cc3c(cc2F)c(=O)c(-c2csc(N)n2)cn3CC)CC1` . Reported MIC?
528

Item under review: `CCn1cc(-c2csc(N)n2)c(=O)c2cc(F)c(N3CCN(CC(=O)N(CCO)CCO)CC3)cc21` . Reported MIC?
62

Item under review: `CCCN1CCN(c2cc3c(cc2F)c(=O)c(-c2csc(N)n2)cn3CC)CC1` . Reported MIC?
154

For every listed record, write down its MIC.
1. CCOC(=O)CN1CCN(c2cc3c(=O)c(-c4csc(N)n4)cn(CC)c3cc2Cl)CC1
2. CCn1cc(-c2csc(N)n2)c(=O)c2cc(F)c(N3CCN(CC(=O)N(C(C)C)C(C)C)CC3)cc21

135
249

For every listed record, write down its MIC.
1. CCn1cc(-c2csc(N)n2)c(=O)c2cc(F)c(N3CCN(CC(C)O)CC3)cc21 (stereo unspecified)
2. CCn1cc(-c2csc(N)n2)c(=O)c2cc(F)c(N3CCN(CC(C)=O)CC3)cc21

19
298

For every listed record, write down its MIC.
1. CCCCN1CCN(c2cc3c(cc2F)c(=O)c(-c2csc(N)n2)cn3CC)CC1
2. CCn1cc(-c2csc(N)n2)c(=O)c2cc(F)c(N3CCN(Cc4ccc(Cl)cc4Cl)CC3)cc21

19
482
